# assayed system: UniProtKB Q96BR1
# Sequence (Q96BR1 whole entry, looked up): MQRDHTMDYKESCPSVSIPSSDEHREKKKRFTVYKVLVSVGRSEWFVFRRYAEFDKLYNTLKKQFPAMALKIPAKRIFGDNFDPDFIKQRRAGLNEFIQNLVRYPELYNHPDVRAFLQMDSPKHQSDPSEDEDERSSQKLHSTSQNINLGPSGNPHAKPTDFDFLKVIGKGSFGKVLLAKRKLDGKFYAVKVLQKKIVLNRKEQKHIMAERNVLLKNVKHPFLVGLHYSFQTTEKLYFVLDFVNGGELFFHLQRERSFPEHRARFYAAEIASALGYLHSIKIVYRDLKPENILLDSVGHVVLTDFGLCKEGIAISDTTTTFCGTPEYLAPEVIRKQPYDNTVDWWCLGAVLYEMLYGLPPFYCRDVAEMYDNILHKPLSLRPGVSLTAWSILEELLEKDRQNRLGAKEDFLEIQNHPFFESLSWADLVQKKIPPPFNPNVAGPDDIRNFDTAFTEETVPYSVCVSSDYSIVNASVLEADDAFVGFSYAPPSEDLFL
# test method notes: Caliper, Mobility shift assay off-chip
# condition info: compound 0.02 µM
endpoint label: inhibition (%)

// below: answered molecules
{"compound string": "Cc1ccc(Nc2nccc(N(C)c3ccc4c(C)n(C)nc4c3)n2)cc1S(N)(=O)=O", "endpoint label": "inhibition", "units label": "%", "observed result": -0.2}
{"compound string": "CNC(=O)c1ccccc1Sc1ccc2c(/C=C/c3ccccn3)n[nH]c2c1", "endpoint label": "inhibition", "units label": "%", "observed result": 0.8}

a = CNC(=O)c1cc(Oc2ccc(NC(=O)Nc3ccc(Cl)c(C(F)(F)F)c3)cc2)ccn1
b = COc1cc2c(Oc3ccc4[nH]c(C)cc4c3F)ncnc2cc1OCCCN1CCCC1
Hi! Which is lower in terms of inhibition, the first one a or the second one b ? Record your answer as the label of the chosen record. a
(a: 0.8%, b: 8.5%)

* * *

# assayed system: MAP3K8 (human) (UniProt P41279)
# Sequence (P41279 whole entry, looked up): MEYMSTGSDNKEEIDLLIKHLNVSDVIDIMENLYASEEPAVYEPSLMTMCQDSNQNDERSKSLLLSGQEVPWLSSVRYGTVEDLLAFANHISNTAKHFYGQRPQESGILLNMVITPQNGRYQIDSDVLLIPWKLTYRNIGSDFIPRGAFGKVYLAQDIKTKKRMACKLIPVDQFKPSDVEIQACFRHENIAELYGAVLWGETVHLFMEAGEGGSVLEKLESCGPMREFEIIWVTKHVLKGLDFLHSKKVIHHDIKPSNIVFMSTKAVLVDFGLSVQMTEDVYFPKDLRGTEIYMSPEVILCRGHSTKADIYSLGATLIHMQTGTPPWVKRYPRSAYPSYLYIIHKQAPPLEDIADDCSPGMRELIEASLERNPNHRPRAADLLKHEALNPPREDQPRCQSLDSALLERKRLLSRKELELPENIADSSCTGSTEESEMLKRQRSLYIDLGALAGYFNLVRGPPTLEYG
# test method notes: ELISA
# condition info: compound 0.2 µM
endpoint label: inhibition (%)

// below: answered compounds
{"compound string": "COc1cc2c(Oc3ccc4[nH]c(C)cc4c3F)ncnc2cc1OCCCN1CCCC1", "assayed system": "MAP3K8 (human) (UniProt P41279)", "endpoint label": "inhibition", "observed result": -1}
{"compound string": "Cc1ccc(Nc2nccc(N(C)c3ccc4c(C)n(C)nc4c3)n2)cc1S(N)(=O)=O", "assayed system": "MAP3K8 (human) (UniProt P41279)", "endpoint label": "inhibition", "observed result": -1.1}

P = CCN(CC)CCNC(=O)c1c(C)[nH]c(/C=C2\C(=O)Nc3ccc(F)cc32)c1C
Q = CNC(=O)c1cc(Oc2ccc(NC(=O)Nc3ccc(Cl)c(C(F)(F)F)c3)cc2)ccn1
Hi! Which is lower in terms of inhibition, the first one P or the second one Q ? Record your answer as the label of the chosen record. P

* * *

# assayed system: PLK3 (human)
# test method notes: Caliper, Mobility shift assay off-chip
# condition info: compound 0.02 µM
endpoint label: inhibition (%)

// below: answered compounds
{"compound string": "COc1cc2c(Oc3ccc4[nH]c(C)cc4c3F)ncnc2cc1OCCCN1CCCC1", "assayed system": "PLK3 (human)", "units label": "%", "inhibition": 6}
{"compound string": "CNC(=O)c1cc(Oc2ccc(NC(=O)Nc3ccc(Cl)c(C(F)(F)F)c3)cc2)ccn1", "assayed system": "PLK3 (human)", "units label": "%", "inhibition": 4}

A = Cc1ccc(Nc2nccc(N(C)c3ccc4c(C)n(C)nc4c3)n2)cc1S(N)(=O)=O
B = CNC(=O)c1ccccc1Sc1ccc2c(/C=C/c3ccccn3)n[nH]c2c1
Exercise: compare A and B ; which one has the greater inhibition? Record your answer as the label of the chosen record. A

* * *

# assayed system: TXK (human)
# test method notes: Caliper, Mobility shift assay off-chip
# condition info: compound 0.2 µM
endpoint label: inhibition (%)

{"compound string": "CNC(=O)c1cc(Oc2ccc(NC(=O)Nc3ccc(Cl)c(C(F)(F)F)c3)cc2)ccn1", "units label": "%", "inhibition": 5.8}

A = CCN(CC)CCNC(=O)c1c(C)[nH]c(/C=C2\C(=O)Nc3ccc(F)cc32)c1C
B = COc1cc2c(Oc3ccc4[nH]c(C)cc4c3F)ncnc2cc1OCCCN1CCCC1
C = Cc1ccc(Nc2nccc(N(C)c3ccc4c(C)n(C)nc4c3)n2)cc1S(N)(=O)=O
Reorder the items by inhibition, least to greatest. List the labels according to the requested ordering. B, A, C
(B: -0.1%, A: 6.1%, C: 27.4%)
